src = ChEMBL document CHEMBL2331243

Biological target: NAD-dependent protein deacetylase sirtuin-3, mitochondrial (Homo sapiens)
Sequence (Q9NTG7 whole entry): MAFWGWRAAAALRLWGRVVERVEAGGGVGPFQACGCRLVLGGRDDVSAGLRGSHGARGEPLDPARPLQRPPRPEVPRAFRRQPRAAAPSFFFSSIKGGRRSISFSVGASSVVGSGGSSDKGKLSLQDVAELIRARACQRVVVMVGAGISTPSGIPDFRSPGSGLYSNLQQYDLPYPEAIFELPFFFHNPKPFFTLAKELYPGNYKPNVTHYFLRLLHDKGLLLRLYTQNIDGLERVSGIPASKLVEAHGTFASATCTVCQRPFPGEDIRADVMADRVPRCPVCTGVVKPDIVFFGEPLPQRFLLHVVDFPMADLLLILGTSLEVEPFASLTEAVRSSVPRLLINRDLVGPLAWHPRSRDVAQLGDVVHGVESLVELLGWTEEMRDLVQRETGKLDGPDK
Experiment: Activation of N-terminal His6-tagged SIRT3 (118 to 399 amino acid residues) (unknown origin) expressed in Escherichia coli BL21(DE3) using ac-RHKKac-AMC as substrate after 45 mins by fluorometric analysis
measure: pEC50
Keep it numeric: pEC50 is minus log10 of the concentration in mol/L.

In: # return recorded pEC50 for input O=C(N/N=C/c1cc(Br)c(O)c(Br)c1O)c1ccc2cc(-c3ccccc3)ccc2c1
Out: 4.54

* * *

Target: NAD-dependent protein deacetylase sirtuin-1 (Homo sapiens)
Assay: Activation of N-terminal His6-tagged SIRT1 (156 to 664 amino acid residues) (unknown origin) expressed in Escherichia coli BL21(DE3) using ac-RHKKac-AMC as substrate at 50 uM after 45 mins by fluorimetric analysis relative to control
Entries annotated with measured max activation
The figure you give is taken to be in %; do not add the unit.

smiles: O=C(N/N=C/c1cc(Br)c(O)c(Br)c1O)c1ccc2cc(Br)ccc2c1
value.unit: %
numeric.readout: 647
--
smiles: O=C(N/N=C/c1ccc(O)cc1O)c1ccc(-c2ccccc2)cc1
value.unit: %
numeric.readout: 157
--
smiles: COc1cccc(C(=O)Nc2ccccc2-c2cn3c(CN4CCNCC4)csc3n2)c1
value.unit: %
numeric.readout: 928
--
smiles: O=C(Cc1ccccc1)Nc1ccccc1-c1cn2c(CN3CCNCC3)csc2n1
value.unit: %
numeric.readout: 130
--
smiles: O=C(Nc1ccccc1-c1cn2c(CN3CCNCC3)csc2n1)c1ccncn1
value.unit: %
numeric.readout: 270

// moving on: another record for max activation
In: # lookup: NAD-dependent protein deacetylase sirtuin-1 (Homo sapiens) max activation, key = O=C(N/N=C/c1cc(Br)c(O)c(Br)c1O)c1ccc(-c2ccccc2)cc1
Out: 246

* * *

Molecular target: NAD-dependent protein deacetylase sirtuin-1 (Homo sapiens)
Assay: Activation of N-terminal His6-tagged SIRT1 (156 to 664 amino acid residues) (unknown origin) expressed in Escherichia coli BL21(DE3) using ac-RHKKac-AMC as substrate after 45 mins by fluorometric analysis
Entries annotated with measured pEC50
Keep it numeric: pEC50 is minus log10 of the concentration in mol/L.

Completed entries (count: 10):
smiles: O=C(Cc1ccccc1)Nc1ccccc1-c1cn2c(CN3CCNCC3)csc2n1
numeric.readout: 4.85
--
smiles: O=C(Nc1ccccc1-c1cn2c(CN3CCNCC3)csc2n1)c1cc2ccccc2o1
numeric.readout: 6.21
--
smiles: O=C(N/N=C/c1cc(Br)c(O)c(Br)c1O)c1ccc(-c2ccccn2)cc1
numeric.readout: 5.64
--
smiles: O=C(Nc1ccccc1-c1cn2c(CN3CCNCC3)csc2n1)c1cccc2cccnc12
numeric.readout: 4.35
--
smiles: COc1cccc(C(=O)Nc2ccccc2-c2cn3c(CN4CCNCC4)csc3n2)c1
numeric.readout: 5.43
--
smiles: O=C(N/N=C/c1cc(Br)c(O)c(Br)c1O)c1ccc2cc(-c3ccco3)ccc2c1
numeric.readout: 5.59
--
smiles: COc1ccc2cc(C(=O)N/N=C/c3cc(Br)c(O)c(Br)c3O)ccc2c1
numeric.readout: 6.05
--
smiles: O=C(N/N=C/c1cc(Br)c(O)c(Br)c1O)c1ccc(-c2ccco2)cc1
numeric.readout: 5.68
--
smiles: COc1c(/C=N/NC(=O)c2ccc3cc(Br)ccc3c2)cc(Br)c(O)c1Br
numeric.readout: 5.06
--
smiles: O=C(N/N=C/c1cc(Br)c(O)c(Br)c1O)c1ccc(Cl)cc1
numeric.readout: 5.15

In: # return recorded pEC50 for input O=C(Nc1ccccc1-c1cn2c(CN3CCNCC3)csc2n1)c1ccncn1
Out: 5.77

In: # return recorded pEC50 for input O=C(Nc1ccccc1-c1cn2c(CN3CCNCC3)csc2n1)c1ccccc1
Out: 4.60

In: # return recorded pEC50 for input N#Cc1ccc(O)c(-c2ccc(C(=O)N/N=C/c3cc(Br)c(O)c(Br)c3O)cc2)c1
Out: 5.43

* * *

Biological target: NAD-dependent protein deacetylase sirtuin-1 (Homo sapiens, UniProt Q96EB6, Q345A)
Sequence (Q96EB6 2-747 Q345A limits assumed): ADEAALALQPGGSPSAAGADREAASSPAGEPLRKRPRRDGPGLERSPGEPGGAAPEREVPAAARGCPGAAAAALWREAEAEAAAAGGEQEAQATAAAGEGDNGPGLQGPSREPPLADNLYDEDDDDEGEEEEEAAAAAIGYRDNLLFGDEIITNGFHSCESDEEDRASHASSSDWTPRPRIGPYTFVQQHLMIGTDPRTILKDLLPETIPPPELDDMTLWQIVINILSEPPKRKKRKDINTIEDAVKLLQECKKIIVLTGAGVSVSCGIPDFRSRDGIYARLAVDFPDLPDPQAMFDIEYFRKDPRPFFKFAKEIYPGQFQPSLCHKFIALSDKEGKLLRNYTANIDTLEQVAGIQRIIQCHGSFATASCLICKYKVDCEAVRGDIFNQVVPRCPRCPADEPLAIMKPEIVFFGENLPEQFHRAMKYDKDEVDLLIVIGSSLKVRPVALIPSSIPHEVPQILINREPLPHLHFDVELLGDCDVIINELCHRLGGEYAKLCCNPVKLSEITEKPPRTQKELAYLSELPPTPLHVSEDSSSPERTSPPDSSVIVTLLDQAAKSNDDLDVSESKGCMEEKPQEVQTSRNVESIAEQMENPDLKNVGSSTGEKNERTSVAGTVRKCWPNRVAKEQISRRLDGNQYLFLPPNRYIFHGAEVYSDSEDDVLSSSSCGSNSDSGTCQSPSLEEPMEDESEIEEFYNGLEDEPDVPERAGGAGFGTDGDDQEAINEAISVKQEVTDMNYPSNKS
Test: Activation of SIRT1 Q345A mutant (unknown origin)
measure: EC50 (µM)
The figure you give is taken to be in µM; do not add the unit.

In: # return recorded EC50 for input O=C(N/N=C/c1cc(Br)c(O)c(Br)c1O)c1ccc2cc(Br)ccc2c1
Out: 12.2

* * *

Entries annotated with measured max activation
Molecular target: NAD-dependent protein deacetylase sirtuin-1 (Homo sapiens)
Assay: Activation of N-terminal His6-tagged SIRT1 (156 to 664 amino acid residues) (unknown origin) expressed in Escherichia coli BL21(DE3) using ac-RHKKac-AMC as substrate at 50 uM after 45 mins by fluorimetric analysis relative to control
The figure you give is taken to be in %; do not add the unit.

smiles: O=C(N/N=C/c1cc(Br)c(O)c(Br)c1O)c1ccc2cc(-c3ccco3)ccc2c1
max activation (%): 267

smiles: COc1ccc(C(=O)Nc2ccccc2-c2cn3c(CN4CCNCC4)csc3n2)c(OC)c1
max activation (%): 197

smiles: COc1c(/C=N/NC(=O)c2ccc3cc(Br)ccc3c2)cc(Br)c(O)c1Br
max activation (%): 298

smiles: CS(=O)(=O)c1ccc2cc(C(=O)N/N=C/c3cc(Br)c(O)c(Br)c3O)ccc2c1
max activation (%): 368

// moving on: another record for max activation
In: # lookup: NAD-dependent protein deacetylase sirtuin-1 (Homo sapiens) max activation, key = O=C(Nc1ccccc1-c1cn2c(CN3CCNCC3)csc2n1)c1ccc2ccccc2n1
Out: 440

* * *

Biological target: NAD-dependent protein deacetylase sirtuin-1 (Homo sapiens)
Experiment: Activation of N-terminal His6-tagged SIRT1 (156 to 664 amino acid residues) (unknown origin) expressed in Escherichia coli BL21(DE3) using ac-RHKKac-AMC as substrate after 45 mins by fluorometric analysis
pEC50: −log10 of the molar value.
Binary call on pEC50: YES from 5 upward, NO beneath that.

Check out these entries, answers already filled in.
smiles: O=C(N/N=C/c1cc(Br)c(O)c(Br)c1O)c1cccc(-c2ccccc2)c1
target.desc: NAD-dependent protein deacetylase sirtuin-1 (Homo sapiens)
category.label: NO

smiles: O=C(N/N=C/c1cc(Br)c(O)c(Br)c1O)c1ccc(-c2ccncc2)cc1
target.desc: NAD-dependent protein deacetylase sirtuin-1 (Homo sapiens)
category.label: YES

smiles: COc1cc(C(=O)Nc2ccccc2-c2cn3c(CN4CCNCC4)csc3n2)cc(OC)c1OC
target.desc: NAD-dependent protein deacetylase sirtuin-1 (Homo sapiens)
category.label: YES

In: Textbook exercise: given the entry COc1c(/C=N/NC(=O)c2ccc(-c3ccccc3)cc2)cc(Br)c(O)c1Br , state whether its pEC50 is greater than or equal to 5.
Out: NO

In: Textbook exercise: given the entry O=C(N/N=C/c1cc(Br)c(O)c(Br)c1O)c1ccc(-c2ccccc2C(F)(F)F)cc1 , state whether its pEC50 is greater than or equal to 5.
Out: YES

In: Textbook exercise: given the entry O=C(N/N=C/c1cc(Br)c(O)c(Br)c1O)c1ccc2cc(-c3ccccc3)ccc2c1 , state whether its pEC50 is greater than or equal to 5.
Out: YES

In: Textbook exercise: given the entry O=C(Nc1ccccc1-c1cn2c(CN3CCNCC3)csc2n1)c1ccc2occc2c1 , state whether its pEC50 is greater than or equal to 5.
Out: YES

In: Textbook exercise: given the entry O=C(N/N=C/c1cc(Br)c(O)c(Br)c1O)c1ccc(-c2cccnc2)cc1 , state whether its pEC50 is greater than or equal to 5.
Out: YES

* * *

Molecular target: NAD-dependent protein deacetylase sirtuin-2 (Homo sapiens, UniProt Q8IXJ6)
Sequence (Q8IXJ6 whole entry): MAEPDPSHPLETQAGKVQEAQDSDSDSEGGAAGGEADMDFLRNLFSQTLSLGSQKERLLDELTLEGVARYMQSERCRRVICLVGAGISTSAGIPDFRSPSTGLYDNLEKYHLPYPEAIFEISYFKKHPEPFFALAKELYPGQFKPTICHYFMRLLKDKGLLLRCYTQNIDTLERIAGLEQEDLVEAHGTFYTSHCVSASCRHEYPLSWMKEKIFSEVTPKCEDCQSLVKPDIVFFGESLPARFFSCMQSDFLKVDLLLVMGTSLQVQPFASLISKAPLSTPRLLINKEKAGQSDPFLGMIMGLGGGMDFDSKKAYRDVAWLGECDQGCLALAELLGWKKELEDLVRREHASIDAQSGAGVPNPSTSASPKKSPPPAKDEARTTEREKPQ
Experiment: Activation of at N-terminal GST-tagged SIRT2 (34 to 356 amino acid residues) (unknown origin) expressed in Escherichia coli BL21(DE3) using ac-RHKKac-AMC as substrate after 45 mins by fluorometric analysis
measure: EC50 (µM)
The figure you give is taken to be in µM; do not add the unit.

smiles: O=C(N/N=C/c1cc(Br)c(O)c(Br)c1O)c1ccc2cc(-c3ccccc3)ccc2c1
value.unit: µM
numeric.readout: 11.6

// moving on: another record for EC50
In: # return recorded EC50 for input O=C(N/N=C/c1cc(Br)c(O)c(Br)c1O)c1ccc2c(c1)Cc1ccccc1-2
Out: 16.5
